Origin of values: ChEMBL document CHEMBL1158556

- TESTED TARGET: UniProtKB P56817
- Sequence (P56817 whole entry): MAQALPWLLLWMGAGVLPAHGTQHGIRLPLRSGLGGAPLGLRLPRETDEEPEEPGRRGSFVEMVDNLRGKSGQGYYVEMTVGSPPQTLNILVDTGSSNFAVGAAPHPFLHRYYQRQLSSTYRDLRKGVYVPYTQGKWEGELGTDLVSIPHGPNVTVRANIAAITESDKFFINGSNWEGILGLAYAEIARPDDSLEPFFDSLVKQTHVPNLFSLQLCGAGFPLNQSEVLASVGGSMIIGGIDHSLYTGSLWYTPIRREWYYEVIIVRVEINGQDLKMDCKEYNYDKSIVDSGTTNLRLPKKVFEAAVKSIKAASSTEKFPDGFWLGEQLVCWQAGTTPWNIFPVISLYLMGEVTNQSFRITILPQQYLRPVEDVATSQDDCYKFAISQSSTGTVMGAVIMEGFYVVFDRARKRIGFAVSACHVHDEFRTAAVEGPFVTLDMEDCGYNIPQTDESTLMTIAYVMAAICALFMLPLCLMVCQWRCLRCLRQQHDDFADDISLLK
- ASSAY PROTOCOL: Inhibition of human BACE1 at 2 uM by FRET assay
PARAMETER: inhibition (%)

>  <MOL SMILES>
CC(C)C[C@H](NC(=O)[C@@H](NC(=O)[C@@H](N)CNC(=O)c1nc[nH]n1)C(C)C)C(=O)N[C@@H](Cc1ccccc1)[C@@H](O)C(=O)Nc1cccc(-c2nn[nH]n2)c1

>  <READING UNIT>
%

>  <inhibition>
91

$$$$
>  <MOL SMILES>
CC(C)C[C@H](NC(=O)[C@@H](NC(=O)[C@@H](N)CNC(=O)c1c[nH]cn1)C(C)C)C(=O)N[C@@H](Cc1ccccc1)[C@@H](O)C(=O)Nc1cccc(-c2nn[nH]n2)c1

>  <READING UNIT>
%

>  <inhibition>
87

$$$$
>  <MOL SMILES>
CC(C)[C@H](NC(=O)[C@@H](N)CNC(=O)c1c[nH]cn1)C(=O)N[C@@H](CC1CCCCC1)C(=O)N[C@@H](Cc1ccccc1)[C@@H](O)C(=O)Nc1cccc(-c2nn[nH]n2)c1

>  <READING UNIT>
%

>  <inhibition>
83

$$$$
>  <MOL SMILES>
CC(C)[C@H](NC(=O)[C@@H](N)CNC(=O)c1nc[nH]n1)C(=O)N[C@@H](CC1CCCCC1)C(=O)N[C@@H](Cc1ccccc1)[C@@H](O)C(=O)Nc1cccc(-c2nn[nH]n2)c1

>  <READING UNIT>
%

>  <inhibition>
94

$$$$
>  <MOL SMILES>
CC(C)C[C@H](NC(=O)[C@@H](NC(=O)[C@@H](N)CNC(=O)c1cc(O)ccc1O)C(C)C)C(=O)N[C@@H](Cc1ccccc1)[C@@H](O)C(=O)Nc1cccc(-c2n[nH]c(=S)o2)c1

>  <READING UNIT>
%

>  <inhibition>
99

$$$$
